Study system: BaF3-Del_TM_CS cells (Homo sapiens, UniProt P00533, T790M/C797S, cells depend on it, form not given)
Sequence (P00533 with tags, fused parts or gaps DEL746-750/T790M/C797S, form open): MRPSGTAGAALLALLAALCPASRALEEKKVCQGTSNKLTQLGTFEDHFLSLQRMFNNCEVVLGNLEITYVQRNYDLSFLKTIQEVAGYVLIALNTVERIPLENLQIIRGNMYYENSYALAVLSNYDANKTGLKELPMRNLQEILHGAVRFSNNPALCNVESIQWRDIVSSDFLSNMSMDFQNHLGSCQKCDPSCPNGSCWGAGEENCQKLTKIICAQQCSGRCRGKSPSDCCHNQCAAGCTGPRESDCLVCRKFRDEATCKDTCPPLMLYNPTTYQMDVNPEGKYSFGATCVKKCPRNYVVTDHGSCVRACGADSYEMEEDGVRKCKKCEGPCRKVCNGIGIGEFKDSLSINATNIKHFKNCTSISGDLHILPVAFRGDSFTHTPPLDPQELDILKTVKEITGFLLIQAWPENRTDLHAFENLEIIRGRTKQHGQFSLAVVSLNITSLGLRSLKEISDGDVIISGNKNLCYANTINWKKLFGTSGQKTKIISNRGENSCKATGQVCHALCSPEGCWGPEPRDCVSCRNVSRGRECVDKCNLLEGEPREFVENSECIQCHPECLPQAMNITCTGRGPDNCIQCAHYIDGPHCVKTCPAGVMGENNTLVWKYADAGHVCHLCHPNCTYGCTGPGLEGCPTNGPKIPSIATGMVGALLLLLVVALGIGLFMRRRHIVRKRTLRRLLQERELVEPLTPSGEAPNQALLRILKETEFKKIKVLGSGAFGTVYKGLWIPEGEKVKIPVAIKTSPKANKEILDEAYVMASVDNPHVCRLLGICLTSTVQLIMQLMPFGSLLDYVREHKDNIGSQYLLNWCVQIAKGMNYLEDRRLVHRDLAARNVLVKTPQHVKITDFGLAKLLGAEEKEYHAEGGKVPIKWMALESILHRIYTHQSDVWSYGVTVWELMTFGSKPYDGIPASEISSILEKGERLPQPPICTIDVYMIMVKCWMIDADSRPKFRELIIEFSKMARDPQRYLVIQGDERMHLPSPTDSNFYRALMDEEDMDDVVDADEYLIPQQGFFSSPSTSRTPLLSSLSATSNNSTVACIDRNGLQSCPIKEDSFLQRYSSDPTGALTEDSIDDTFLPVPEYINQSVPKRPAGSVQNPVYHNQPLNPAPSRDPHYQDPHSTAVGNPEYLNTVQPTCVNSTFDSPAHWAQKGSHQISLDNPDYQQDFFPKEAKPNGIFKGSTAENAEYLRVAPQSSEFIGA
Method description: Cell antiproliferation assay (CellTiter-Glo), BaF3-Del_TM_CS
Format: cell-based
Condition description: 48 h treatment, read-out: BaF3-Del_TM_CS IC50
Please assign False whenever GI50 is at or above 30 nM, and True whenever it is below.

INSERT INTO assay_data (structure_smiles, assigned_category) VALUES
  ('COc1cc(N2CCC(N3CCN(C)CC3)CC2)ccc1Nc1ncc(Cl)c(Nc2ccc(Br)c3c2N(S(C)(=O)=O)CC3)n1', 'True'),
  ('COc1cc(N2CCC(N3CCN(C)CC3)CC2)ccc1Nc1ncc(Cl)c(Nc2cccc3c2N(S(=O)(=O)C2CC2)CC3)n1', 'False'),
  ('COc1cc(C2CCN(CCO)CC2)c(C)cc1Nc1nc(Nc2cccc3c2N(S(C)(=O)=O)CC3)c2cc[nH]c2n1', 'False'),
  ('CCN1CCN(C2CCN(c3ccc(Nc4nc(Nc5ccc(F)c6c5N(S(C)(=O)=O)CC65CCC5)c5cc[nH]c5n4)cc3F)CC2)CC1', 'False'),
  ('COc1cc(N2CCN(C)[C@H](C)C2)c(C)cc1Nc1nc(Nc2cccc3c2N(S(C)(=O)=O)CC3)c2cc[nH]c2n1', 'False');

----------
Study system: EGFR(L858R_T790M_C797S) (aa695-end, Invitrogen) (Homo sapiens, UniProt P00533, C797S/L858R/T790M)
Sequence (P00533 695-1210 T790M/C797S/L858R): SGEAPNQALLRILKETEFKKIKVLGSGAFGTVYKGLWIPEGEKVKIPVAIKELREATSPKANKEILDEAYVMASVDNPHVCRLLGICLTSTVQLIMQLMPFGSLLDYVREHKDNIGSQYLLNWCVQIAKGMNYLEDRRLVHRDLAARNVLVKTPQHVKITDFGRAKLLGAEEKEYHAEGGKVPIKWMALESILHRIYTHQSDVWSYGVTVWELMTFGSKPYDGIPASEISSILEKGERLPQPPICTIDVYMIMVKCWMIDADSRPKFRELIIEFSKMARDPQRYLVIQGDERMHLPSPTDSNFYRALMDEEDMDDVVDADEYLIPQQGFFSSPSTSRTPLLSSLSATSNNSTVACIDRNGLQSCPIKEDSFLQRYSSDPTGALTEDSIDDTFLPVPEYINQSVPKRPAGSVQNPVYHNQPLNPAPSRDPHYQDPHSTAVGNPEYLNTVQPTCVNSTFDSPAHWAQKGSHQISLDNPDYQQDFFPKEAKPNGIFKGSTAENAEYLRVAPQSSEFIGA
Method description: Biochemical EGFR inhibition assay (TR-FRET), L858R/T790M/C797S mutant
Condition description: ATP at Km, 15 min pre-incubation, 60 min reaction; read-out: LR_TM_CS (Km ATP) IC50
pIC50: −log10 of the molar value.
Recorded pIC50 for the following compounds
Recorded metric: pIC50

INSERT INTO measurements (compound, number) VALUES
  ('CN(C)C1CCN(c2ccc(Nc3ncc(Br)c(Nc4cccc5c4N(S(C)(=O)=O)CC5)n3)c3c2OCO3)CC1', 9.38),
  ('CN1CCN(C2CCN(c3ccc(Nc4ncc(Cl)c(Nc5cccc6c5N(S(C)(=O)=O)CC6)n4)c4c3CCO4)CC2)CC1', 9.02),
  ('COc1cc(Nc2nc(Nc3cccc4c3N(S(C)(=O)=O)CC4)c3cc[nH]c3n2)ccc1N1CCC(N2CCN(C)CC2)CC1', 9.36),
  ('COc1cc(N2CCN(C)[C@@H](C)C2)c(C)cc1Nc1ncc(Br)c(Nc2cccc3c2N(S(C)(=O)=O)CC3)n1', 9.30),
  ('COc1cc(N2CCC(N3CCN(C)CC3)CC2)ccc1Nc1ncc(Cl)c(Nc2cc(C)cc3c2N(S(C)(=O)=O)CC3)n1', 6.79),
  ('CN1CCN(C2CCN(c3ccc(Nc4nc(Nc5cccc6c5N(S(C)(=O)=O)CC6)c5cc[nH]c5n4)cc3F)CC2)CC1', 9.59),
  ('C#Cc1cnc(Nc2ccc(N3CCC(N4CCN(C)CC4)CC3)cc2OC)nc1Nc1cccc2c1N(S(C)(=O)=O)CC2', 8.89),
  ('CC1Cc2c(N3CCN(C)CC3)ccc(Nc3ncc(Br)c(Nc4cccc5c4N(S(C)(=O)=O)CC5)n3)c2O1 (centres unmarked)', 9.17),
  ('COc1cc(N2CCC(N3CCN(C)CC3)CC2)ccc1Nc1nc(Nc2cccc3c2N(S(C)(=O)=O)CC3)c2nc[nH]c2n1', 8.85),
  ('COc1cc(N2CCC(N3CCN(C)CC3)CC2)c(F)cc1Nc1nc(Nc2cccc3c2N(S(C)(=O)=O)CC3)c2cc[nH]c2n1', 9.25),
  ('Cc1cc(Nc2nc(Nc3cccc4c3N(S(C)(=O)=O)CC4)c3cc[nH]c3n2)ccc1N1CCC(N2CCN(C)CC2)CC1', 9.15),
  ('CCN1CCN(C2CCN(c3ccc(Nc4nc(Nc5cccc6c5N(S(C)(=O)=O)CC6)c5cn[nH]c5n4)cc3F)CC2)CC1', 8.89),
  ('CN1CCN(C2CCN(c3ccc(Nc4ncc(Br)c(Nc5cccc6c5N(S(C)(=O)=O)CC6)n4)c4c3CCO4)CC2)CC1', 9.00),
  ('CN1CCN(c2ccc(Nc3nc(Nc4cccc5c4N(S(C)(=O)=O)CC5)c4cc[nH]c4n3)cn2)CC1', 8.32);
